// MFI fold over background lookup, one value per entry
# systemUnderTest: T1, mouse GPNMB endogenously expressed on B16F10 cells (mouse, UniProt Q99P91 23-574)
# T1 construct: whole, on cells; also called moGPNMB
# T1 sequence (looked up): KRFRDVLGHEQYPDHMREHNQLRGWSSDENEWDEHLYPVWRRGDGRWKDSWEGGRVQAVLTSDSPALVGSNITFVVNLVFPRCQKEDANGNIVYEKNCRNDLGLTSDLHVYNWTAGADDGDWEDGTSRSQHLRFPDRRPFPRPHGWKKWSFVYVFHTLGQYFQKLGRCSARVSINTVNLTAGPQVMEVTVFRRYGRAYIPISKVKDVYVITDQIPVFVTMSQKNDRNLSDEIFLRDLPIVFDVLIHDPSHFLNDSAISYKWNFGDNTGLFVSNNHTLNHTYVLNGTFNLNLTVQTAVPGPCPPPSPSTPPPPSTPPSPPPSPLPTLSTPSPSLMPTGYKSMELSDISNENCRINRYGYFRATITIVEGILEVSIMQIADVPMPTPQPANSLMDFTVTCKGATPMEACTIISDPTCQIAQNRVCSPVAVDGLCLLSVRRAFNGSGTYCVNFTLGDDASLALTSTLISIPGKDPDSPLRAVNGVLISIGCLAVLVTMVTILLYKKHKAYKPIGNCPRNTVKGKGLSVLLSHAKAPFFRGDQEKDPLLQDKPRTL
# assay: FACS, B16F10 cells
Write it as a number; the unit fold goes unstated.

anti-GPNMB antibody GPN-37 (antibody, human IgG1, V domains shown, chimeric) VH: EVQLVESGGGLVQPGRSLKLSCAASGFTFSSKSGMAWVRQAPTKGLEWVASISNGGGDTYYRDSVKGRFTISRDNAKNTQYLQMDSLRPEDTATYYCARHRDYGYDAYFDYWGQGVMVTVSS VL: DIQMTQSPASLSASLGETVTIECLASEDIYSSLAWYQQKPGKSPQLLIYDASSLQDGVPSRFSGSESGTQYSLEINSLQSEDAATYFCQQHHDYPYTFGAGTKLELK	0.8
anti-GPNMB antibody GPN-09 (antibody, human IgG1, V domains shown, chimeric) VH: QVQLQQSGAELVKPGASVKLSCKASGYTFTSYYIYWVKQRPGQGLEWIGEINPSNGGTYFNEKFKNKATLTVDKSSSTAYMQLSSLTSEDSAVYYCTRGGNYYAYWGQGTLVTVSA VL: DIQMTQSPSSLSASLGERVSLTCRASQEISGHLGWLQQKPDGTIKRLIYAALTLDSGVPKRFSGSRSGSDYSLTISSLESEDFADYYCLQYASYPYTFGGGTKLEIK	1
anti-GPNMB antibody GPN-65 (antibody, human IgG1, V domains shown, chimeric) VH: QLQLQQSGTEVVKPGASVKIPCKASGYAFSSYWMNWVKQRPGKGLEWIGQIYPGDGDTNDNGKFEGKATLTVDKSSNTAYIQLSSLTSEDSAVYFCARSPLHLRGSMDYWGQGTSVTVSS VL: SIVMTQTPKFLLVSAGDRVTITCKASQSVSNDVAWFQQKPGQSPELLIYSASNRYTGVPDRFTGSGYGTDFTFTISTVQAEDLAVYFCQQNYYSPFTFGGGTRLEIK	6.9

(Q) Could you please provide reported MFI fold over background for anti-GPNMB antibody GPN-43 (antibody, human IgG1, V domains shown, chimeric) VH: EVQLQQSGPELVKPGASVKISCKASGYTFTDYYMNWVRQSHGKSLEWIGDINPYHGGSTYNQKIKVKATLTVDKSSSTAYMELRSLTSEDSAVYYCARNWPYFDYWGQGTTLTVSS VL: DIQMTQSPASLSASVGETVTITCRASENIYSFLVWYQQKQGKSPQLLVYNAKTLAEGVPSRFSGSGSGTQFSLKISSLQPEDFGSYYCQHHFGTPPYTFGGGTKLEIK ? Thanks!
(A) 1.6

(Q) Return MFI fold over background (reported value) for this binder: anti-GPNMB antibody GPN-08 (antibody, human IgG1, V domains shown, chimeric) VH: QVQLQQPGAELVKPGASVKLSCRASGYTFTSYWLHWVKQRPGQGLEWIGEINPSDGRTNYIEKVKTKATLTVDKSSSTAYMQLSSLTSEDSAVYYCARSGGNYAWFAYWGQGTLVTVSA VL: DIVMTQSHKFMSTSVGDRVSITCKASQDVSPSVAWYQQRPGQSPKLLIYSASYRYTGVPDRFTGSGSGTDFTFTISSVQAEDLAVYYCQQHYSIPLTFGAGTKLELK
(A) 1

(Q) // fetch MFI fold over background given entry anti-GPNMB antibody GPN-11 (antibody, human IgG1, V domains shown, chimeric) VH: QVQLQQPGAELVKPGASVKLSCKASGYTFTSYWMHWVKQRPGQGLEWIGEINSSNGRTNYNEKFKTKATLTVDRSSSTAYMQLSSLTSEDSAVYYCARLGYYSGSPYPYYAMDCWGQGTSVTVSS VL: DIQMTQSPASLSVSVGETVTITCRASENIYSNLAWYQQKQGKSPQLLVYAATNLADGVPSRFSGSGSGTQYSLKINSLQSEDFGSYYCQHFWNTPPTFGGGTKLEIK
(A) 1

From: patent US20250270343A1
